Listed here are compounds together with their documented chromatographic logD.
PROTOCOL DETAILS: Chromatographic distribution coefficient (eLogD7.4)
CONDITION: pH 7.4
Answer field: number only, no words.

Let me know recorded chromatographic logD for COc1ccc(CNC(=O)C2CCN(C(C)c3cccc4ccccc34)C2)cc1 (stereo not drawn) , thanks.
4.25

Let me know recorded chromatographic logD for COc1ccc(CNC(=O)C2CCN(C(C)c3cccc4ccccc34)CC2)cc1 (stereo not drawn) , thanks.
4.17

Let me know recorded chromatographic logD for "COc1ccc(CC(=O)N2CCN([C@@H](C)c3cccc4ccccc34)CC2)cc1" , thanks.
4.56

###

Tested on: uninfected HeLa-ACE2 cells
CONDITION: Hela-ACE2 Uninfected Cell Toxicity

{"MOLECULE": "COc1ccc(CNC(=O)C2CCN(C(C)c3cccc4ccccc34)C2)cc1 (stereo not shown)", "Data Mode": "decreasing"}
{"MOLECULE": "CC(c1cccc2ccccc12)N1CCC(C(=O)NCc2ccc(Cl)cc2)CC1 (stereo not shown)", "Data Mode": "decreasing"}
{"MOLECULE": "C[C@H](c1cccc2ccccc12)N1CCC(C(=O)NCc2ccc(Cl)cc2)CC1", "Data Mode": "decreasing"}

###

PROTOCOL DETAILS: in vitro
CONDITION: human, uninfected HeLa-ACE2 cells
Counter-ions that a name gives are not always drawn.
Listed here are molecules together with their documented AC50 at 24 h.
Just the number in µM, nothing appended.

{"MOLECULE": "COc1ccc(CNC(=O)C2CCN(C(C)c3cccc4ccccc34)C2)cc1 (stereo not drawn) [Compound 17]", "VALUE KIND": "AC50 at 24 h", "MEASUREMENT": 29.6}
{"MOLECULE": "COc1ccc(C[C@H](N)C(=O)N[C@H]2[C@@H](O)[C@H](n3cnc4c(N(C)C)ncnc43)O[C@@H]2CO)cc1 [Puromycin dihydrochloride, reference compound]", "VALUE KIND": "AC50 at 24 h", "MEASUREMENT": 0.578}
{"MOLECULE": "CCC(CC)COC(=O)[C@H](C)N[P@](=O)(OC[C@H]1O[C@@](C#N)(c2ccc3c(N)ncnn23)[C@H](O)[C@@H]1O)Oc1ccccc1 [Remdesivir, reference compound]", "VALUE KIND": "AC50 at 24 h", "MEASUREMENT": 2.15}
{"MOLECULE": "CC(c1cccc2ccccc12)N1CCC(C(=O)NCc2ccc(Cl)cc2)CC1 (stereo not drawn) [Compound 13]", "VALUE KIND": "AC50 at 24 h", "MEASUREMENT": 18.9}

Let me know recorded AC50 at 24 h for Cc1cccc(/C=N/Nc2cc(N3CCOCC3)nc(OCCc3ccccn3)n2)c1 [Apilimod, reference compound] , thanks.
5.7

Let me know recorded AC50 at 24 h for C[C@H](c1cccc2ccccc12)N1CCC(C(=O)NCc2ccc(Cl)cc2)CC1 [Compound 12] , thanks.
14.5

###

System: SARS-CoV-2
PROTOCOL DETAILS: microbe, parasite or virus in culture
CONDITION: Severe acute respiratory syndrome coronavirus 2, HeLa-ACE2, read-out: qAC50
Structures can show the parent of a compound that is named as a salt.
Listed here are compounds together with their documented log10(EC50).
Quick note: numbers are log10 of EC50, with µM as the unit.

{"COMPOUND": "COc1ccc(C[C@H](N)C(=O)N[C@H]2[C@@H](O)[C@H](n3cnc4c(N(C)C)ncnc43)O[C@@H]2CO)cc1 [Puromycin dihydrochloride, reference compound]", "log10(EC50)": -0.42}
{"COMPOUND": "C[C@H](c1cccc2ccccc12)N1CCC(C(=O)NCc2ccc(Cl)cc2)CC1 [Compound 12]", "log10(EC50)": 0.47}
{"COMPOUND": "CC(c1cccc2ccccc12)N1CCC(C(=O)NCc2ccc(Cl)cc2)CC1 (centres unmarked) [Compound 13]", "log10(EC50)": 0.57}

Print SARS-CoV-2 log10(EC50) for CCC(CC)COC(=O)[C@H](C)N[P@](=O)(OC[C@H]1O[C@@](C#N)(c2ccc3c(N)ncnn23)[C@H](O)[C@@H]1O)Oc1ccccc1 [Remdesivir, reference compound] .
-1.02

Print SARS-CoV-2 log10(EC50) for Cc1cccc(/C=N/Nc2cc(N3CCOCC3)nc(OCCc3ccccn3)n2)c1 [Apilimod, reference compound] .
-1.59

Hey, just so you know, these numbers are from paper PMC12461331.
